System: LOX IMVI melanoma
Test: NCI tumour cell line growth inhibition, 48 h; in the data active = GI50 below about 0.43 µM; inactive = the rest
Please state which outcome applies, choosing from active, inactive

# example entries with known answers
MOLECULE	CLASS ASSIGNMENT
CN1CCN(c2ccc(-c3cccc(CN4CCOCC4)c3)cc2NC(=O)c2c[nH]c(=O)cc2C(F)(F)F)CC1	inactive
O=C(Nc1ccc(-n2ccc3c(NC(=O)c4ccccc4)nccc32)cc1)c1ccc(N2CCOCC2)c(C(F)(F)F)c1	active
CCCCCCC(O)C(O)CCC(O)C1CCC(CCCCC(O)CC2=CC(C)OC2=O)O1 (stereo not drawn)	inactive
N.N.NCCCCCN.O=C([O-])CC(=O)[O-].O=C([O-])CC(=O)[O-].[Pt+4].[Pt+4]	inactive

Check the results log: what was the call for CN1CCN(Cc2ccc(NC(=O)c3cccc(C#Cc4c(N)ncc5ccc(F)cc45)c3)cc2C(F)(F)F)CC1 ? inactive

# lookup: test call for Cc1ccccc1C[P+](c1ccccc1)(c1ccccc1)c1ccccc1 inactive

Which outcome was assigned to COc1cc2c(cc1OC)-c1ncc3cc(OC)c(OC)cc3c1C2 in this test? inactive

What classification did NC(Cc1c[nH]c2cc(F)ccc12)C(=O)O (stereo not drawn) end up with in this test? inactive

Any idea what this test logged for COCC(=O)NC/C=C/c1ccc2ncnc(Nc3ccc(Oc4ccc(C)nc4)c(C)c3)c2c1 ? inactive

Outcome logged for COC(=O)[C@H](Cc1cn(C)cn1)NC(=O)[C@@H](NC(=O)Nc1cc(C(F)(F)F)cc(C(F)(F)F)c1)C(C)(C)C in this assay: inactive

What is the recorded call for this molecule in the test? C[C@@]1(O)CCC[C@H]1n1c(=O)c(C(F)F)cc2cnc(NC3CCN(S(C)(=O)=O)CC3)nc21 inactive

Could you check what this test reported for CSC1SCC2C(=O)N(C)C(C(C)C)C(=O)OCC(NC(=O)c3cnc4ccccc4n3)C(=O)NC(C)C(=O)N(C)C1C(=O)N(C)C(C(C)C)C(=O)OCC(NC(=O)c1cnc3ccccc3n1)C(=O)NC(C)C(=O)N2C (stereo not drawn) ? active

Recorded test outcome, item C=C(C)[C@@H]1CC[C@]2(CN)CC[C@]3(C)[C@H](CC[C@@H]4[C@@]5(C)CCC(N)[C@@](C)(CO)[C@@H]5CC[C@]43C)[C@@H]12 (stereo partly drawn) inactive

Fill in: this test's call for CCCc1n(Cc2ccc3ccccc3n2)cc[n+]1Cc1ccc2ccccc2c1 is ___ inactive

Which outcome did this test record for the molecule CCCCCCCCCC[N+](C)(C)C ? inactive

Test call, this molecule: CCCCCC(=C/c1ccccc1)/C=N/N=C(N)N inactive

Called result for CCCC(=O)Nc1c(I)cc(I)c(CC(CC)C(=O)O)c1I (stereo not drawn) inactive

# fetch the recorded call for Cc1ccc2c(c1)-c1oc(=O)c(-c3cc4ccccc4oc3=O)cc1C(O)O2 (stereo not drawn) here inactive

Origin of measurements: PubChem BioAssay (NCI)
